Taken from patent US11931431B2.

Test system: PSMA^+ PC-3 PIP tumors
Assay: MicroPET/CT imaging of mice transplanted with prostate cancer cell lines
Assay type: in vivo, nude mouse
Conditions: 270 min after injection
Reported values of intake of mouse organ: Muscle for individual entries
Entry rule: numbers only, all in % ID/g.

[
  {
    "compound": "O=C(O)CCC(NC(=O)NC(CCCCN(CC(=O)O)C(=O)COCCNC(=O)C(CCCCNC(=O)CCCc1ccc(I)cc1)NC(=O)CN1CCN2CCN3CCN(CC1)CC(=O)[O][68Ga]([O]C(=O)C2)[O]C(=O)C3)C(=O)O)C(=O)O (stereo not shown) [[^68Ga]1k]",
    "result.unit": "% ID/g",
    "value.observed": 2.15
  },
  {
    "compound": "O=C(O)CCC(NC(=O)NC(CCCCN(CC(=O)O)C(=O)COCCOCCNC(=O)CN1CCN2CCN3CCN(CC1)CC(=O)[O][68Ga]([O]C(=O)C2)[O]C(=O)C3)C(=O)O)C(=O)O (stereo not shown) [[^68Ga]1e]",
    "result.unit": "% ID/g",
    "value.observed": 0.01
  },
  {
    "compound": "Cc1ccc(CCCC(=O)NCCCCC(NC(=O)CN2CCN3CCN4CCN(CC2)CC(=O)[O][68Ga]([O]C(=O)C3)[O]C(=O)C4)C(=O)NCCOCCOCC(=O)N(CCCCC(NC(=O)NC(CCC(=O)O)C(=O)O)C(=O)O)CC(=O)O)cc1 (stereo not shown) [[^68Ga]1g]",
    "result.unit": "% ID/g",
    "value.observed": 0.06
  }
]

Please give the documented intake of mouse organ: Muscle of O=C(O)CCC(NC(=O)NC(CCCCN(CC(=O)O)C(=O)COCCOCCNC(=O)C(CCCCNC(=O)CCCc1ccc(I)cc1)NC(=O)CN1CCN2CCN3CCN(CC1)CC(=O)[O][68Ga]([O]C(=O)C2)[O]C(=O)C3)C(=O)O)C(=O)O (stereo not shown) [[^68Ga]1h] 1.70

* * *

System: PSMA^+ PC-3 PIP tumors
Experiment: MicroPET/CT imaging of mice transplanted with prostate cancer cell lines
Assay type: in vivo, nude mouse
Conditions: 270 min after injection
experimental.endpoint: intake of mouse organ: Kidney (% ID/g)
Entry rule: numbers only, all in % ID/g.

Please give the documented intake of mouse organ: Kidney of O=C(O)CCC(NC(=O)NC(CCCCN(CC(=O)O)C(=O)COCCNC(=O)C(CCCCNC(=O)CCCc1ccc(I)cc1)NC(=O)CN1CCN2CCN3CCN(CC1)CC(=O)[O][68Ga]([O]C(=O)C2)[O]C(=O)C3)C(=O)O)C(=O)O (stereo not shown) [[^68Ga]1k] 9.25

Please give the documented intake of mouse organ: Kidney of Cc1ccc(CCCC(=O)NCCCCC(NC(=O)CN2CCN3CCN4CCN(CC2)CC(=O)[O][68Ga]([O]C(=O)C3)[O]C(=O)C4)C(=O)NCCOCCOCC(=O)N(CCCCC(NC(=O)NC(CCC(=O)O)C(=O)O)C(=O)O)CC(=O)O)cc1 (stereo not shown) [[^68Ga]1g] 12.45

Please give the documented intake of mouse organ: Kidney of O=C(O)CCC(NC(=O)NC(CCCCN(CC(=O)O)C(=O)COCCOCCNC(=O)C(CCCCNC(=O)CCCc1ccc(I)cc1)NC(=O)CN1CCN2CCN3CCN(CC1)CC(=O)[O][68Ga]([O]C(=O)C2)[O]C(=O)C3)C(=O)O)C(=O)O (stereo not shown) [[^68Ga]1h] 7.45

Please give the documented intake of mouse organ: Kidney of O=C(O)CCC(NC(=O)NC(CCCCN(CC(=O)O)C(=O)COCCOCCNC(=O)CN1CCN2CCN3CCN(CC1)CC(=O)[O][68Ga]([O]C(=O)C2)[O]C(=O)C3)C(=O)O)C(=O)O (stereo not shown) [[^68Ga]1e] 0.41
